# STUDY TARGET: glucocerebrosidase (Gcase) (Homo sapiens)
# Sequence (P04062 40-536): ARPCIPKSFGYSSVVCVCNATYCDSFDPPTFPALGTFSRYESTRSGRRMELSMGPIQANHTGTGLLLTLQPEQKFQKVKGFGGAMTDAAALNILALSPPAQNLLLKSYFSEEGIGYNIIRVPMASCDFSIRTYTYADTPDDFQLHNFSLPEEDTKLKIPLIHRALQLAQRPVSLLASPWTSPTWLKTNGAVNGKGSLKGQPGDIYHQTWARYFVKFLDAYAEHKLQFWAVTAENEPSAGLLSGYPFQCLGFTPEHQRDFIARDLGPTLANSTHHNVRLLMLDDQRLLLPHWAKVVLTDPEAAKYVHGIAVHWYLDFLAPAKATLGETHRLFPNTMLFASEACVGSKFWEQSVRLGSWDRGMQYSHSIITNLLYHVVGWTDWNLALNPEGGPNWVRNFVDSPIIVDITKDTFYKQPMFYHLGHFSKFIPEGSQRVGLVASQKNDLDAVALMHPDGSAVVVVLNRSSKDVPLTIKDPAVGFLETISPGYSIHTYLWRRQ
# ASSAY PROCEDURE: Glucocerebrosidase (Gcase) activation assay, 4-methylumbelliferyl-beta-D-glucopyranoside substrate, with saposin C
# Assay type: biochemical
# COND: 1 μM test compound; read-out: Percent Gcase Activation 1 μM Test Compound
METRIC NAME: activation at 1 µM

Before answering, review these 4 worked examples.
Cc1cc(-n2ccc(Cl)n2)nc2c(C(=O)NC(C)(C)C3CC3)ncn12 [III-142] ... < 30%
Cc1cc(-c2ccc3ocnc3c2)nc2c(C(=O)N[C@@H](C)C3CC3)ncn12 [III-130] ... > 60%
Cc1cc(-c2cccc(F)c2)nc2c(C(=O)N[C@H](C)C3CC3)ncn12 [III-94] ... > 60%
CCOc1cccc(-c2cc(C)n3cnc(C(=O)N[C@@H](C)C4CC4)c3n2)n1 [III-155] ... 30 to 60%

IN: Input COc1cc(-c2ccc(F)cc2)nc2c(C(=O)N[C@@H](C)C3CC3)ncn12 [III-34] , output reported activation at 1 µM.
OUT: < 30%

IN: For the compound Cc1cc(Oc2ccccc2F)nc2c(C(=O)N[C@@H](C)C3CC3)ncn12 [III-120] , give its measured activation at 1 µM value.
OUT: 30 to 60%

IN: Provide only the value of recorded activation at 1 µM for Cc1nc2c(C(=O)N[C@@H](C)C3CC3)ncn2c(C)c1-c1ccc(F)cc1 [III-40]
OUT: < 30%

IN: Please supply the value of reported activation at 1 µM for the item Cc1cc(OC(C)C)nc2c(C(=O)NC(C3CC3)C(F)(F)F)ncn12 (stereo not shown) [III-177]
OUT: 30 to 60%

IN: Return reported activation at 1 µM. Input compound: Cc1cc(C)n2cnc(C(=O)NC(C)(C)CC3CC3)c2n1 [III-46]
OUT: > 60%

IN: Quick one: give measured activation at 1 µM for Cc1cc(-n2cccn2)nc2c(C(=O)NC(C)(C)C3CC3)ncn12 [III-70]
OUT: 30 to 60%

IN: Look up activation at 1 µM of Cc1cc(-c2ccccc2C(N)=O)nc2c(C(=O)NC(C3CC3)C(F)(F)F)ncn12 (stereo not shown) [III-154] and report it.
OUT: < 30%

IN: Identify the reported activation at 1 µM for the following entry. CCc1cc(-c2cccc(OC)c2)nc2c(C(=O)N[C@@H](C)C3CC3)ncn12 [III-161]
OUT: > 60%

IN: Hello, please tell me recorded activation at 1 µM for this one: Cc1cc(-c2cccc(Cl)c2)nc2c(C(=O)N[C@@H](C)C3CC3)ncn12 [III-110]
OUT: > 60%

* * *

# STUDY TARGET: glucocerebrosidase (Gcase) (Homo sapiens)
# ASSAY PROCEDURE: Glucocerebrosidase (Gcase) activation assay, 4-methylumbelliferyl-beta-D-glucopyranoside substrate, with saposin C
# Format: biochemical
# COND: 1 μM test compound; read-out: Percent Gcase Activation 1 μM Test Compound
Reported activation at 1 µM is given for each of the following molecules.

A selection of reference data follows.
Cc1cc(Oc2cccnc2)nc2c(C(=O)N[C@@H](C)C3CC3)ncn12 ... < 30%
Cc1cc(-c2cc(F)ccc2F)nc2c(C(=O)N[C@@H](C)C3CC3)ncn12 ... > 60%
Cc1c(-c2ccc(F)cc2)cnc2c(C(=O)N[C@@H](C)C3CC3)ncn12 ... < 30%
CCc1cc(N2CCCC(F)(F)C2)nc2c(C(=O)NC(C3CC3)C(F)(F)F)ncn12 (stereo not drawn) ... > 60%
CCc1cc(-c2ccns2)nc2c(C(=O)NC(C3CC3)C(F)(F)F)ncn12 (stereo not drawn) ... > 60%
Cc1cc(-c2ccc(F)c(Cl)n2)nc2c(C(=O)N[C@@H](C)C3CC3)ncn12 ... 30 to 60%
Cc1cc(-c2cccnc2)nc2c(C(=O)N[C@H]3CC[C@H](OC(C)(C)C)CC3)ncn12 ... < 30%
COc1cc(-c2cc(C)n3cnc(C(=O)N[C@@H](C)C4CC4)c3n2)ccn1 ... < 30%
C#Cc1cccc([C@H](NC(=O)c2ncn3c(C)cc(C)nc23)C(F)(F)F)c1 ... > 60%
Cc1cc(-c2cccc(Cl)c2)nc2c(C(=O)NC(C)(C)C)ncn12 ... > 60%

IN: Give reported activation at 1 µM value for CNc1cc(C)n2cnc(C(=O)NC(c3ccc(F)cc3)C(F)(F)F)c2n1 (stereo not drawn)
OUT: > 60%

IN: Give activation at 1 µM for the following molecule: COc1cccc(-c2cc(C)n3cnc(C(=O)N[C@@H](C)C4CC4)c3n2)n1
OUT: > 60%

IN: Please indicate activation at 1 µM recorded for Cc1cc(OC2CCC2)nc2c(C(=O)NC(C3CC3)C3CC3)ncn12
OUT: > 60%

* * *

Reported solubility is given for each of the following compounds.
# ASSAY PROCEDURE: Compound solubility in water
# Format: physicochemical
# COND: in water
Answer with a number only, understood to be in µg/mL.

Cc1cc(-c2ccoc2)nc2c(C(=O)NC(C3CC3)C(F)(F)F)ncn12 (centres unmarked) [IV-84] ... 3.2
Cc1cc(-c2ccc(F)cc2)nc2c(C(=O)N[C@H](C3CC3)C(F)(F)F)ncn12 [IV-45] ... 2.5
Cc1cc(-c2cccc(C#N)c2F)nc2c(C(=O)NC(C3CC3)C(F)(F)F)ncn12 (centres unmarked) [IV-36] ... 0.5

IN: Determine its reported solubility: Cc1cc(-c2cccc(F)c2)nc2c(C(=O)N[C@@H](C3CC3)C(F)(F)F)ncn12 [IV-20]
OUT: 0.7

IN: Specify solubility for CCc1cc(-c2ccsn2)nc2c(C(=O)NC(C3CC3)C(F)(F)F)ncn12 (centres unmarked) [IV-106] and stop.
OUT: 0.6

IN: Identify solubility associated with the compound Cc1cc(-c2cccc3c2OCO3)nc2c(C(=O)N[C@H](C)C3CC3)ncn12 [IV-31]
OUT: 1.4

IN: Check the records and state solubility for Cc1cc(-c2cnsc2)nc2c(C(=O)N[C@H](C3CC3)C(F)(F)F)ncn12 [IV-52]
OUT: 15.4

IN: Please give measured solubility of the following entry: CCOc1cccc(-c2cc(C)n3cnc(C(=O)NC(C4CC4)C(F)(F)F)c3n2)n1 (centres unmarked) [IV-102]
OUT: 7.8

IN: Identify the reported solubility for the following entry. COc1cccc(-c2cc(C)n3cnc(C(=O)N[C@@H](C)C(F)(F)F)c3n2)c1 [IV-22]
OUT: 1.7

IN: Quote solubility reported for Cc1cc(-c2ccc3c(c2)OCO3)nc2c(C(=O)N[C@@H](C)C3CC3)ncn12 [IV-28] please.
OUT: 1.1

IN: Answer with the recorded solubility of COc1cc(F)cc(-c2cc(C)n3cnc(C(=O)N[C@@H](C)C4CC4)c3n2)c1 [IV-56] only.
OUT: 3.7

IN: Answer with the recorded solubility for the compound listed here: COc1cccc(-c2cc(C)n3cnc(C(=O)N[C@@H](C4CC4)C(F)(F)F)c3n2)n1 [IV-14]
OUT: 3.2

IN: Entry COc1cccc(-c2cc(C)n3cnc(C(=O)N[C@H](C4CC4)C(F)(F)F)c3n2)n1 [IV-13] needs its solubility filled in; supply it.
OUT: 1.9

IN: Please give measured solubility of the following entry: Cc1cc(-c2ccc3c(c2)OCO3)nc2c(C(=O)N[C@H](C)C(F)(F)F)ncn12 [IV-77]
OUT: 1.3

IN: Find the measured solubility of Cc1cc(-c2nccs2)nc2c(C(=O)NC(C3CC3)C(F)(F)F)ncn12 (centres unmarked) [IV-50] and report it.
OUT: 1.5

IN: // Input: Cc1cc(-c2cccn3cnnc23)nc2c(C(=O)NC(C3CC3)C(F)(F)F)ncn12 (centres unmarked) [IV-42] . Output its solubility only.
OUT: 2.1

IN: Return solubility (reported value) for this compound: COc1cccc(-c2cc(C)n3cnc(C(=O)N[C@H](C)C(F)(F)F)c3n2)c1 [IV-21]
OUT: 2.7

meta.source: patent US9920061B2
